Values from ChEMBL document CHEMBL1150447

- Test system: EMT6
- ASSAY_NAME: Compound was evaluated for cytotoxicity against murine mammary carcinoma EMT6 cell lines for 4 hr at pH-7.4
- Type: functional, cell-based
- CONDITION_NOTES: Mus musculus, EMT6, 4 h
MEASURE: IC50 (µM)
Could you give me the number in µM? Just the number is fine.

Below, each entry is followed by its recorded IC50 result.
1) COc1cc2cc(C(=O)N3CC(CCl)c4ccc(N(C)C)cc43)[nH]c2c(OC)c1OC (stereo not given) = 0.11
2) CS(=O)(=O)N1CC(CCl)c2ccc(O)cc21 (stereo not given) = 7.7
3) CNc1ccc2c(c1)N(C(=O)c1cc3cc(OC)c(OC)c(OC)c3[nH]1)CC2CCl (stereo not given) = 0.11
4) CNc1ccc2c(c1)N(S(C)(=O)=O)CC2CCl (stereo not given) = 13
5) COc1cc2cc(C(=O)N3CC(CCl)c4ccc(O)cc43)[nH]c2c(OC)c1OC (stereo not given) = 0.0022
6) CS(=O)(=O)N1CC(CCl)c2ccc(N)cc21 (stereo not given) = 33

Now let's try a different one.
Name the reported IC50 value associated with the molecule CN(C)c1ccc2c(c1)N(S(C)(=O)=O)CC2CCl (stereo not given)
20
